Task for the reader: assign each of the following sequences its reported shrunken log2 fold change.
Tested on: Escherichia coli TOP10
TEST_NAME: shrunken log2 fold change of peptide-encoding DNA abundance (4.5 h post-induction vs induction); higher = less antimicrobial activity (less host growth inhibition)
TEST_CONTEXT: time post-induction: 4.5 h; library: site-saturation at positions 5, 18, 19, 20
// return a plain number; no unit text

Name the recorded shrunken log2 fold change for `RRIRIRPPRLPRPRPRPAKHPRP` .
-0.476

Name the recorded shrunken log2 fold change for `RRIRFRPPRLPRPRPRPCELPRP` .
0.00618

Name the recorded shrunken log2 fold change for `RRIRERPPRLPRPRPRPIQRPRP` .
0.146

Name the recorded shrunken log2 fold change for `RRIRERPPRLPRPRPRPLYDPRP` .
-1.62

Name the recorded shrunken log2 fold change for `RRIRDRPPRLPRPRPRPRQQPRP` .
0.388

Name the recorded shrunken log2 fold change for `RRIRMRPPRLPRPRPRPWPRPRP` .
1.25

Name the recorded shrunken log2 fold change for `RRIRRRPPRLPRPRPRPQWVPRP` .
0.279

Name the recorded shrunken log2 fold change for `RRIRPRPPRLPRPRPRPSAPPRP` .
0.017

Name the recorded shrunken log2 fold change for `RRIRMRPPRLPRPRPRPLGTPRP` .
1.31

Name the recorded shrunken log2 fold change for `RRIRRRPPRLPRPRPRPNRDPRP` .
-0.062

Name the recorded shrunken log2 fold change for `RRIRCRPPRLPRPRPRPVRNPRP` .
0.0515

Name the recorded shrunken log2 fold change for `RRIRLRPPRLPRPRPRPSMMPRP` .
-0.358

Name the recorded shrunken log2 fold change for `RRIRLRPPRLPRPRPRPQTYPRP` .
-0.371

Name the recorded shrunken log2 fold change for `RRIRGRPPRLPRPRPRPKQDPRP` .
0.881

Name the recorded shrunken log2 fold change for `RRIRFRPPRLPRPRPRPSQEPRP` .
-0.286

====

Tested on: Escherichia coli TOP10;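 further: peptides expressed intracellularly from a pBAD plasmid library in pooled LB shake-flask culture, induced with 0.3% L-arabinose, DNA abundance read by NGS, three biological replicates, DESeq2 with apeglm shrinkage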
TEST_NAME: shrunken log2 fold change of peptide-encoding DNA abundance (4.5 h post-induction vs induction); higher = less antimicrobial activity (less host growth inhibition)
TEST_CONTEXT: time post-induction: 4.5 h; library: site-saturation at positions 5, 18, 19, 20
QUANTITY_NAME: shrunken log2 fold change
// return a plain number; no unit text

Name the recorded shrunken log2 fold change for `RRIRCRPPRLPRPRPRPSPRPRP` .
0.485

Name the recorded shrunken log2 fold change for `RRIRLRPPRLPRPRPRPSPTPRP` .
1.06

Name the recorded shrunken log2 fold change for `RRIRLRPPRLPRPRPRPRIYPRP` .
-0.636

Name the recorded shrunken log2 fold change for `RRIRVRPPRLPRPRPRPGMWPRP` .
0.149

Name the recorded shrunken log2 fold change for `RRIRIRPPRLPRPRPRPCVQPRP` .
1.47

Name the recorded shrunken log2 fold change for `RRIRVRPPRLPRPRPRPNGFPRP` .
-0.0486

Name the recorded shrunken log2 fold change for `RRIRVRPPRLPRPRPRPWFRPRP` .
-0.304

Name the recorded shrunken log2 fold change for `RRIRLRPPRLPRPRPRPYKQPRP` .
-0.0145

Name the recorded shrunken log2 fold change for `RRIRRRPPRLPRPRPRPFEYPRP` .
-0.0276

Name the recorded shrunken log2 fold change for `RRIRLRPPRLPRPRPRPHHMPRP` .
-0.353

Name the recorded shrunken log2 fold change for `RRIRWRPPRLPRPRPRPNTRPRP` .
0.15

Name the recorded shrunken log2 fold change for `RRIRTRPPRLPRPRPRPNCWPRP` .
0.0359

Name the recorded shrunken log2 fold change for `RRIRSRPPRLPRPRPRPNFRPRP` .
-0.113

Name the recorded shrunken log2 fold change for `RRIRSRPPRLPRPRPRPGKEPRP` .
-0.0291

Name the recorded shrunken log2 fold change for `RRIRIRPPRLPRPRPRPRTYPRP` .
-0.726
